assay-explanation: Activity at macrolide 2'-phosphotransferase 1 by PK/LDH-coupled assay
readout-kind: Km (µM)
Record the value in µM, omitting the unit from your answer.

Identify measured Km corresponding to CC[C@H]1OC(=O)[C@H](C)[C@@H](O[C@H]2C[C@@](C)(OC)[C@@H](O)[C@H](C)O2)[C@H](C)[C@@H](O[C@@H]2O[C@H](C)C[C@H](N(C)C)[C@H]2O)[C@](C)(OC)C[C@@H](C)C(=O)[C@H](C)[C@@H](O)[C@]1(C)O
45.9

Identify measured Km corresponding to CC[C@H]1OC(=O)[C@H](C)C(=O)[C@H](C)[C@@H](O[C@@H]2O[C@H](C)C[C@H](N(C)C)[C@H]2O)[C@](C)(OC)C[C@@H](C)C(=O)[C@H](C)[C@H]2N(CCCCn3cnc(-c4cccnc4)c3)C(=O)O[C@]12C
7.4

Identify measured Km corresponding to CC[C@H]1OC(=O)[C@H](C)[C@@H](O[C@H]2C[C@@](C)(OC)[C@@H](O)[C@H](C)O2)[C@H](C)[C@@H](O[C@@H]2O[C@H](C)C[C@H](N(C)C)[C@H]2O)[C@](C)(O)C[C@@H](C)C(=O)[C@H](C)[C@@H](O)[C@]1(C)O
37.2

Identify measured Km corresponding to CC[C@H]1OC(=O)C[C@@H](O)[C@H](C)[C@@H](O[C@@H]2O[C@H](C)[C@@H](O[C@H]3C[C@@](C)(O)[C@@H](O)[C@H](C)O3)[C@H](N(C)C)[C@H]2O)[C@@H](CC=O)C[C@@H](C)C(=O)/C=C/C(C)=C/[C@@H]1CO[C@@H]1O[C@H](C)[C@@H](O)[C@@H](OC)[C@H]1OC
131

Identify measured Km corresponding to CC[C@H]1OC(=O)[C@H](C)[C@@H](O[C@H]2C[C@@](C)(OC)[C@@H](O)[C@H](C)O2)[C@H](C)[C@@H](O[C@@H]2O[C@H](C)C[C@H](N(C)C)[C@H]2O)[C@](C)(O)C[C@@H](C)CN(C)[C@H](C)[C@@H](O)[C@]1(C)O
27.7

###

assay-explanation: Activity at macrolide 2'-phosphotransferase 1 by PK/LDH-coupled assay
readout-kind: kcat (s⁻¹)
Record the value in s⁻¹, omitting the unit from your answer.

Identify measured kcat corresponding to CC[C@H]1OC(=O)[C@H](C)C(=O)[C@H](C)[C@@H](O[C@@H]2O[C@H](C)C[C@H](N(C)C)[C@H]2O)[C@](C)(OC)C[C@@H](C)C(=O)[C@H](C)[C@H]2N(CCCCn3cnc(-c4cccnc4)c3)C(=O)O[C@]12C
0.152

Identify measured kcat corresponding to CC[C@H]1OC(=O)[C@H](C)[C@@H](O[C@H]2C[C@@](C)(OC)[C@@H](O)[C@H](C)O2)[C@H](C)[C@@H](O[C@@H]2O[C@H](C)C[C@H](N(C)C)[C@H]2O)[C@](C)(OC)C[C@@H](C)C(=O)[C@H](C)[C@@H](O)[C@]1(C)O
0.311

Identify measured kcat corresponding to CC[C@H]1OC(=O)[C@H](C)[C@@H](O[C@H]2C[C@@](C)(OC)[C@@H](O)[C@H](C)O2)[C@H](C)[C@@H](O[C@@H]2O[C@H](C)C[C@H](N(C)C)[C@H]2O)[C@](C)(O)C[C@@H](C)C(=O)[C@H](C)[C@@H](O)[C@]1(C)O
0.279

Identify measured kcat corresponding to CC[C@H]1OC(=O)C[C@@H](O)[C@H](C)[C@@H](O[C@@H]2O[C@H](C)[C@@H](O[C@H]3C[C@@](C)(O)[C@@H](O)[C@H](C)O3)[C@H](N(C)C)[C@H]2O)[C@@H](CC=O)C[C@@H](C)C(=O)/C=C/C(C)=C/[C@@H]1CO[C@@H]1O[C@H](C)[C@@H](O)[C@@H](OC)[C@H]1OC
0.174

Identify measured kcat corresponding to CC[C@H]1OC(=O)[C@H](C)[C@@H](O[C@H]2C[C@@](C)(OC)[C@@H](O)[C@H](C)O2)[C@H](C)[C@@H](O[C@@H]2O[C@H](C)C[C@H](N(C)C)[C@H]2O)[C@](C)(O)C[C@@H](C)CN(C)[C@H](C)[C@@H](O)[C@]1(C)O
0.292

###

assay-explanation: Ratio of Kcat to Km for macrolide 2'-phosphotransferase 1 by PK/LDH-coupled assay
Give kcat/Km for every item shown.
Record the value in ×10³ /s/M, omitting the unit from your answer.

Identify measured kcat/Km corresponding to CC[C@H]1OC(=O)C[C@@H](O)[C@H](C)[C@@H](O[C@@H]2O[C@H](C)[C@@H](O[C@H]3C[C@@](C)(O)[C@@H](O)[C@H](C)O3)[C@H](N(C)C)[C@H]2O)[C@@H](CC=O)C[C@@H](C)C(=O)/C=C/C(C)=C/[C@@H]1CO[C@@H]1O[C@H](C)[C@@H](O)[C@@H](OC)[C@H]1OC
1.33

Identify measured kcat/Km corresponding to CC[C@H]1OC(=O)[C@H](C)[C@@H](O[C@H]2C[C@@](C)(OC)[C@@H](O)[C@H](C)O2)[C@H](C)[C@@H](O[C@@H]2O[C@H](C)C[C@H](N(C)C)[C@H]2O)[C@](C)(OC)C[C@@H](C)C(=O)[C@H](C)[C@@H](O)[C@]1(C)O
6.77

Identify measured kcat/Km corresponding to CC[C@H]1OC(=O)[C@H](C)[C@@H](O[C@H]2C[C@@](C)(OC)[C@@H](O)[C@H](C)O2)[C@H](C)[C@@H](O[C@@H]2O[C@H](C)C[C@H](N(C)C)[C@H]2O)[C@](C)(O)C[C@@H](C)C(=O)[C@H](C)[C@@H](O)[C@]1(C)O
7.52
